Every entry's value here was drawn from PubChem BioAssay.

Target: Luciferin 4-monooxygenase (Photinus pyralis) (UniProt P08659)
Sequence (P08659 whole entry, looked up): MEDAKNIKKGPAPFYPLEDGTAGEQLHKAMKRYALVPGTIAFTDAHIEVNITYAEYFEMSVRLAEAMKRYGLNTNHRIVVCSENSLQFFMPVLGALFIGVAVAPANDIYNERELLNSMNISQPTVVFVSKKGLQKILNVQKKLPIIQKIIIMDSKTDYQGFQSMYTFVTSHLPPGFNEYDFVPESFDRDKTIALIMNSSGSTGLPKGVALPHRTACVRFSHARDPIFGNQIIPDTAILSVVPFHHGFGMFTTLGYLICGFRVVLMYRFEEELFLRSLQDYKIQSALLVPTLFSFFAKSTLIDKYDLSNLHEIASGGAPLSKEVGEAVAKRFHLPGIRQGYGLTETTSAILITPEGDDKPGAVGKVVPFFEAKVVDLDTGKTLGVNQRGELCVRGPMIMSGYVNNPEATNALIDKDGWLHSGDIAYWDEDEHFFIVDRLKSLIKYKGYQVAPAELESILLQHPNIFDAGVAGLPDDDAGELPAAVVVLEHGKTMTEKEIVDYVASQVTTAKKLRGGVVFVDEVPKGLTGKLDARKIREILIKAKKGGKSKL
Assay: firefly luciferase enzyme inhibitors, primary screen, biochemical, luminescence, purified enzyme, 2006 set (AID 1141);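 also: cell-free assay with purified firefly luciferase at 100 ng per well in PBS; test concentration not given here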
Conditions: SteadyGlo luminescence, 30 min, higher = more signal, called active from +8 up or from −8 down
Experimental Readout: z-score
Write the value as a bare number.

Compound: COC(=O)[C@]1(CCC(=O)OC(C)(C)C)N=C(c2ccc(OCCCO)cc2)O[C@@H]1c1ccccc1CN=[N+]=[N-]
Endpoint Result: -0.76

Compound: CC1CC/C=C\[C@H]2OC34C=CCN(C(C)(C)C)C(=O)[C@H]3N(C(C)CO)C(=O)[C@@H]4C2C(=O)O1 (stereo partly drawn)
Endpoint Result: -0.694

Compound: CC(C)=CCCC(C)=CC(O)C1C=CC2C(=O)N(C)C(=O)C2N1Nc1ccccc1 (stereo not drawn)
Endpoint Result: 0.15

So what does the record say about z-score for CN1C(=O)C2C=CC(C(O)c3ccc([N+](=O)[O-])cc3)N(N3CCCCC3)C2C1=O (stereo not drawn) ? -0.661

So what does the record say about z-score for CCCCCN1CC=CC23O[C@@H]4/C=C\CCC(C)OC(=O)C4[C@H]2C(=O)N(C(C)CO)[C@@H]3C1=O (stereo partly drawn) ? -0.078

So what does the record say about z-score for C#C[C@H](O[Si](C#Cc1ccc(Oc2ccccc2)cc1)(C(C)C)C(C)C)c1ccccc1 ? 0.0848

So what does the record say about z-score for NC(=O)NCC#Cc1ccc2c(c1)[C@]1(C(=O)N2)[C@H](C(=O)Nc2nc3ccccc3s2)[C@H]2C(=O)O[C@H](c3ccccc3)[C@H](c3ccccc3)N2[C@@H]1c1ccccc1OCCO ? -0.921

So what does the record say about z-score for COc1cc(Br)cc(C(O)C2C=CC3C(=O)N(C)C(=O)C3N2N2CCCCC2)c1OC (stereo not drawn) ? -0.141
